Item-by-item account of Kd
- TESTED SYSTEM: RAC-alpha serine/threonine-protein kinase [E49C,C296S,C310S,C344S] (Homo sapiens, UniProt P31749, C296S/C310S/C344S/E49C)
- Sequence (P31749 whole entry E49C/C296S/C310S/C344S): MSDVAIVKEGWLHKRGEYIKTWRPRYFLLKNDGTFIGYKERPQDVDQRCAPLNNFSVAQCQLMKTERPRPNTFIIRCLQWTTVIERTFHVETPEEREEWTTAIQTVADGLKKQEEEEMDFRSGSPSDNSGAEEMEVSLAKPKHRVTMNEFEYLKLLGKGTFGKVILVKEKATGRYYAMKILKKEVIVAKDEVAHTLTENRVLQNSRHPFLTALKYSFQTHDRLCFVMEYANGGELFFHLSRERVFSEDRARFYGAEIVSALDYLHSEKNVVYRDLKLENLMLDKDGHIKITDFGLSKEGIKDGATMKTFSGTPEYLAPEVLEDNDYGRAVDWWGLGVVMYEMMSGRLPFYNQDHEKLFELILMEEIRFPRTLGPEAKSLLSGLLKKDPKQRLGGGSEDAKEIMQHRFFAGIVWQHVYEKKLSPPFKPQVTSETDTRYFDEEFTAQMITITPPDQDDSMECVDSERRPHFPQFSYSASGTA
- TEST PROTOCOL: iFLik Assay
- ASSAY CONTEXT: pH 7.4
# output: bare number, implied unit µM

q: Look up Kd of Cc1ccc(-n2cc(-c3ccccc3)c3c(NCc4cccnc4)ncnc32)cc1 and report it.
a: 7.8

---
q: Fill in Kd for record Cc1ccc(-n2cc(-c3ccccc3)c3c(NCc4cccs4)ncnc32)cc1
a: 2.2

q: For the molecule O=c1[nH]ccc2nc(-c3ccc(CN4CCC(n5c(=O)[nH]c6cc(Cl)ccc65)CC4)cc3)c(-c3ccccc3)cc12 , report Kd.
a: 0.15

q: Supply Kd value. Item: Cc1ccc(-n2cc(-c3ccccc3)c3c(NCc4ccccc4)ncnc32)cc1
a: 6

Data origin, for the record: BindingDB's records for doi:10.1021/cb500355c
